- Target Under Test: VLA4 (Homo sapiens, UniProt P05556+P13612)
- Construct: endogenous in cells; host or cells: Ramos cells
- Sequence (P13612 34-1032): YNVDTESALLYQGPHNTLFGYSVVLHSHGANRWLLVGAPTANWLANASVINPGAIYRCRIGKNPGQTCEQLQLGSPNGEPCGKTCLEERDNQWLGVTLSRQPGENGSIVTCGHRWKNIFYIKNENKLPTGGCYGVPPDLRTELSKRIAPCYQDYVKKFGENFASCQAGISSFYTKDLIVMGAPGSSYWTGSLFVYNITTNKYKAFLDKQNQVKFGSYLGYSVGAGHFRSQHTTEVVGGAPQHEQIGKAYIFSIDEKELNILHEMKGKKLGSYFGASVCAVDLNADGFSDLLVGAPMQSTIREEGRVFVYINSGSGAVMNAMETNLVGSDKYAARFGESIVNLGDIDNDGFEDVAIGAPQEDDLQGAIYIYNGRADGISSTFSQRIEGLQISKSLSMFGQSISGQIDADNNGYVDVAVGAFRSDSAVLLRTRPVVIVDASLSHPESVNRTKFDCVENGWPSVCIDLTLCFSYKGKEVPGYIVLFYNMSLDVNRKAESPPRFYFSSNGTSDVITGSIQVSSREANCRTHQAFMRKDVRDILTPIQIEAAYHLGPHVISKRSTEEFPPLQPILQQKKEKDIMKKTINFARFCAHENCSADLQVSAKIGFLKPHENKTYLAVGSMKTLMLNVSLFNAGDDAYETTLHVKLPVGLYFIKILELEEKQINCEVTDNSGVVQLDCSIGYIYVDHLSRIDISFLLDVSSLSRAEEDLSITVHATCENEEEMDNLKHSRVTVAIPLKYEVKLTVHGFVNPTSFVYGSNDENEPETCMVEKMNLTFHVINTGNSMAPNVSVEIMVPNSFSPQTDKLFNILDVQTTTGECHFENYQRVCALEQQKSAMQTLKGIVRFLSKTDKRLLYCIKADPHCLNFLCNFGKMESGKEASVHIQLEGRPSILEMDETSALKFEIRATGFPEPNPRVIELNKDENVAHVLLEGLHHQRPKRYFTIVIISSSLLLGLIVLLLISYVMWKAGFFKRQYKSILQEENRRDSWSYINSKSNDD
- Sequence (P05556 21-798): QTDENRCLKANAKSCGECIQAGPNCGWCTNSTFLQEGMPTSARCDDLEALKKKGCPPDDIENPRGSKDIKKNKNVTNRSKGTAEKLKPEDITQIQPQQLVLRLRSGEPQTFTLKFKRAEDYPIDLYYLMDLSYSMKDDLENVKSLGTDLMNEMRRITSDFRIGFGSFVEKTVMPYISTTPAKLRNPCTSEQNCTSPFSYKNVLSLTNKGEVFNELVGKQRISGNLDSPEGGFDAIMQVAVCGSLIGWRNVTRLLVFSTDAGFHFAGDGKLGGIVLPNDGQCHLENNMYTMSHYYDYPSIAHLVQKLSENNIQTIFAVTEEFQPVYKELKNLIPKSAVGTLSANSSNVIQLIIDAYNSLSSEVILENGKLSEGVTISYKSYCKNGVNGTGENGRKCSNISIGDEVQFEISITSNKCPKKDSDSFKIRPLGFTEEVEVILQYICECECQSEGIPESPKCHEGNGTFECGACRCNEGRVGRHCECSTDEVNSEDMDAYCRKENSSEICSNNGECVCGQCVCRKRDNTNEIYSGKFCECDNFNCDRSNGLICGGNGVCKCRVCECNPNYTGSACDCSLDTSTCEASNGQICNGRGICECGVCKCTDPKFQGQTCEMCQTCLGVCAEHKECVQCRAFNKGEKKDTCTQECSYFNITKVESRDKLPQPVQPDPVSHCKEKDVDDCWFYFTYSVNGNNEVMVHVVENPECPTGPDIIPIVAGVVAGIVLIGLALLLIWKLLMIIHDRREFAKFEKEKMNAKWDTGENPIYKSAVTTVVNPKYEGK
- Assay Procedure: Inhibition of VLA4-dependent adhesion of Ramos cells to BSA-CS1
- Assay type: cell-based
- Condition Details: Ramos cells, BSA-CS1 coated wells, 2 mM MnCl2, 30 minutes at room temperature; read-out: IC50
pIC50: −log10 of the molar value. Numbered stars: 1 amine (or outer) side, 2 acyl side, 3 side chain; on linkers, the order of the positions; unused ones are H or OH. Square brackets hold non-standard residues; d marks the D form. Peptide text beside a SMILES is read from it. * marks the point of attachment. X2 = O=C(Cc1ccc(N[*:1])cc1)[*:2]; NH(2-Me-phenyl) = Cc1ccccc1N*; CO = O=C([*:1])[*:2]; NHBn = c1ccc(CN*)cc1
Measured pIC50 values are reported for all entries that follow.

Completed entries (count: 3):
{"Compound": "CNC(=O)[C@@H](NC(=O)[C@H](CC(=O)O)NC(=O)[C@H](CC(C)C)NC(=O)NCc1ccccc1)C(C)C [Compound 47] ({NHBn-CO}-Leu-Asp-Val-NHMe)", "Target Under Test": "VLA4 (Homo sapiens, UniProt P05556+P13612)", "pIC50": "< 5.00"}
{"Compound": "CNC(=O)[C@@H](NC(=O)[C@H](CC(=O)O)NC(=O)[C@H](CC(C)C)N(C)C(=O)Cc1ccccc1)C(C)C [Compound 180] (HELM PEPTIDE1{[O=C(Cc1ccccc1)[*:2]].[meL].D.V.[CN[*:1]]}$$$$V2.0)", "Target Under Test": "VLA4 (Homo sapiens, UniProt P05556+P13612)", "pIC50": "5.00 to 7.30"}
{"Compound": "CC(C)C[C@H](NC(=O)CCc1ccc(O)cc1)C(=O)N[C@@H](CC(=O)O)C(=O)N(CC(C)C)CC(C)C", "Target Under Test": "VLA4 (Homo sapiens, UniProt P05556+P13612)", "pIC50": "< 5.00"}

# evaluate next
Prompt line: // query pIC50 value for entry CSCC[C@H](NC(=O)Cc1ccc(NC(=O)Nc2ccccc2C)cc1)C(=O)N[C@@H](CC(=O)O)C(=O)N[C@H](C(=O)N1CCC[C@H]1C(=O)O)C(C)C [Compound 315] ({NH(2-Me-phenyl)-CO}-[X2]MDVP-OH)
Response line: > 7.30

---

Measured pIC50 values are reported for all entries that follow.
- Target Under Test: VLA4 (Homo sapiens, UniProt P05556+P13612)
- Construct: endogenous in cells; host or cells: Ramos cells
- Assay Procedure: Inhibition of VLA4-dependent adhesion of Ramos cells to BSA-CS1
- Type: cell-based
- Condition Details: Ramos cells, BSA-CS1 coated wells, 2 mM MnCl2, 30 minutes at room temperature; read-out: IC50
pIC50: −log10 of the molar value. Numbered stars: 1 amine (or outer) side, 2 acyl side, 3 side chain; on linkers, the order of the positions; unused ones are H or OH. Square brackets hold non-standard residues; d marks the D form. Peptide text beside a SMILES is read from it. * marks the point of attachment. X2 = O=C(Cc1ccc(N[*:1])cc1)[*:2]; CO = O=C([*:1])[*:2]; X1 = Oc1ccccc1N*

Completed entries (count: 2):
{"Compound": "Cc1ccccc1NC(=O)Nc1ccc(CC(=O)N[C@@H](CC(C)C)C(=O)N[C@@H](CCC(=O)O)C(=O)N[C@H](C(N)=O)C(C)C)cc1", "Target Under Test": "VLA4 (Homo sapiens, UniProt P05556+P13612)", "pIC50": "> 7.30"}
{"Compound": "CSCC[C@H](NC(=O)Cc1ccc(NC(=O)Nc2ccccc2O)cc1)C(=O)N[C@@H](CC(=O)O)C(=O)N[C@H](C(=O)N1CCC[C@H]1C(=O)O)C(C)C [Compound 146] ({X1-CO}-[X2]MDVP-OH)", "Target Under Test": "VLA4 (Homo sapiens, UniProt P05556+P13612)", "pIC50": "> 7.30"}

Prompt line: // query pIC50 value for entry "CCCCOC(=O)[C@@H](NC(=O)[C@H](CC(=O)O)NC(=O)[C@H](CC(C)C)NC(=O)Cc1ccccc1)C(C)C"
Response line: < 5.00

---

- Target Under Test: VLA4 (Homo sapiens, UniProt P05556+P13612)
- Construct: endogenous in cells; host or cells: Ramos cells
- Assay Procedure: Inhibition of VLA4-dependent adhesion of Ramos cells to BSA-CS1
- Format: cell-based
- Condition Details: Ramos cells, BSA-CS1 coated wells, 2 mM MnCl2, 30 minutes at room temperature; read-out: IC50
pIC50: −log10 of the molar value. Peptide text beside a SMILES is read from it.
Measured pIC50 values are reported for all entries that follow.

{"Compound": "COc1ccc(CNC(=O)[C@@H](NC(=O)[C@H](CC(=O)O)NC(=O)[C@H](CC(C)C)NC(=O)c2ccc3ccccc3n2)[C@@H](C)O)cc1", "Target Under Test": "VLA4 (Homo sapiens, UniProt P05556+P13612)", "pIC50": "5.00 to 7.30"}

Prompt line: // query pIC50 value for entry COC(=O)[C@@H](NC(=O)[C@H](CC(=O)O)NC(=O)[C@H](CC(C)C)NC(=O)Cc1ccccc1)[C@@H](C)O [Compound 191] (HELM PEPTIDE1{[O=C(Cc1ccccc1)[*:2]].L.D.T.[CO[*:1]]}$$$$V2.0)
Response line: < 5.00

Prompt line: // query pIC50 value for entry "CC(C)C[C@H](NC(=O)[C@H](CC(=O)O)NC(=O)[C@H](CC(C)C)NC(=O)c1cc2ccccc2cn1)C(=O)O"
Response line: < 5.00

Prompt line: // query pIC50 value for entry CC(C)C[C@H](NC(=O)C1CCOC1)C(=O)N[C@@H](CC(=O)O)C(=O)N[C@H](C(=O)O)C(C)C (stereo partly shown)
Response line: < 5.00

Prompt line: // query pIC50 value for entry "CNC(=O)[C@@H](NC(=O)[C@H](CC(=O)O)NC(=O)[C@H](CC(C)C)NC(=O)Nc1ccc(C)cc1)C(C)C"
Response line: < 5.00

Prompt line: // query pIC50 value for entry CC(C)C[C@H](NC(=O)C1CCCO1)C(=O)N[C@@H](CC(=O)O)C(=O)N[C@H](C(=O)O)C(C)C (stereo partly shown)
Response line: < 5.00

Prompt line: // query pIC50 value for entry "CSCC[C@H](NC(=O)[C@H](CC(=O)O)NC(=O)[C@H](CCSC)NC(=O)Cc1ccc(NC(=O)Nc2ccccc2C)cc1)C(N)=O"
Response line: > 7.30

---

- Target Under Test: VLA4 (Homo sapiens, UniProt P05556+P13612)
- Construct: endogenous in cells; host or cells: Ramos cells
- Assay Procedure: Inhibition of VLA4-dependent adhesion of Ramos cells to BSA-CS1
- Format: cell-based
- Condition Details: Ramos cells, BSA-CS1 coated wells, 2 mM MnCl2, 30 minutes at room temperature; read-out: IC50
pIC50: −log10 of the molar value.
Measured pIC50 values are reported for all entries that follow.

Prompt line: // query pIC50 value for entry "CNC(=O)[C@H](COCc1ccccc1)NC(=O)[C@H](CC(=O)O)NC(=O)[C@H](CC(C)C)NC(=O)c1ccc2ccccc2n1"
Response line: < 5.00

---

- Target Under Test: VLA4 (Homo sapiens, UniProt P05556+P13612)
- Construct: endogenous in cells; host or cells: Ramos cells
- Assay Procedure: Inhibition of VLA4-dependent adhesion of Ramos cells to BSA-CS1
- Format: cell-based
- Condition Details: Ramos cells, BSA-CS1 coated wells, 2 mM MnCl2, 30 minutes at room temperature; read-out: IC50
pIC50: −log10 of the molar value. Numbered stars: 1 amine (or outer) side, 2 acyl side, 3 side chain; on linkers, the order of the positions; unused ones are H or OH. Square brackets hold non-standard residues; d marks the D form. Peptide text beside a SMILES is read from it. * marks the point of attachment. X2 = O=C(Cc1ccc(N[*:1])cc1)[*:2]; Boc = CC(C)(C)OC(=O)*; CO = O=C([*:1])[*:2]; X4 = c1ccc(N*)nc1
Measured pIC50 values are reported for all entries that follow.

Prompt line: // query pIC50 value for entry CC(C)CCNC(=O)[C@H](CC(=O)O)NC(=O)[C@H](CC(C)C)NC(=O)C1CCc2ccccc2N1 (stereo partly shown)
Response line: < 5.00

Prompt line: // query pIC50 value for entry "CC(C)CNC(=O)[C@@H](CC(=O)O)NC(=O)[C@H](CC(C)C)NC(=O)CCc1ccc(O)cc1"
Response line: < 5.00

Prompt line: // query pIC50 value for entry CC(C)[C@H](NC(=O)[C@H](CC(=O)O)NC(=O)OC(C)(C)C)C(=O)N1CCC[C@H]1C(=O)O [Compound 149] (HELM PEPTIDE1{[CC(C)(C)OC(=O)[*:2]].D.V.P}$$$$V2.0)
Response line: < 5.00

Prompt line: // query pIC50 value for entry CC(C)CC(NC(=O)C(Cc1ccc(O)cc1)NC(=O)OC(C)(C)C)C(=O)NC(CC(=O)O)C(=O)NC(C(=O)O)C(C)C (stereo not shown) [Compound 66] (Boc-YLDV-OH; configuration not given here)
Response line: < 5.00

Prompt line: // query pIC50 value for entry CC(C)C[C@H](NC(=O)Cc1ccc(NC(=O)Nc2ccccn2)cc1)C(=O)N[C@@H](CC(=O)O)C(=O)N[C@H](C(=O)N1CCC[C@H]1C(=O)O)C(C)C [Compound 316] ({X4-CO}-[X2]LDVP-OH)
Response line: > 7.30

Prompt line: // query pIC50 value for entry CC(C)C[C@H](NC(=O)[C@H](CC(=O)O)NC(=O)C1Cc2ccccc2CN1)C(=O)O (stereo partly shown) [Compound 88] (HELM PEPTIDE1{[O=C(C1Cc2ccccc2CN1)[*:2]].D.L}$$$$V2.0)
Response line: < 5.00

Prompt line: // query pIC50 value for entry "CC(C)CNC(=O)[C@H](CC(=O)O)NC(=O)[C@@H]1CCCN1C(=O)CCc1ccc(O)cc1"
Response line: < 5.00

Prompt line: // query pIC50 value for entry CNC(=O)[C@@H](NC(=O)[C@H](CC(=O)O)NC(=O)[C@H](CC(N)=O)NC(=O)Cc1ccccc1)C(C)C [Compound 132] (HELM PEPTIDE1{[O=C(Cc1ccccc1)[*:2]].N.D.V.[CN[*:1]]}$$$$V2.0)
Response line: < 5.00

Prompt line: // query pIC50 value for entry "CNC(=O)[C@@H](NC(=O)[C@H](CC(=O)O)NC(=O)[C@H](CC(C)C)N(C)C(=O)c1ccc(OC)cc1)C(C)C"
Response line: < 5.00

Prompt line: // query pIC50 value for entry "CC(C)CNC(=O)[C@H](CC(=O)O)NC(=O)[C@H](CC(C)C)NC(=O)c1cc2ccccc2cn1"
Response line: 5.00 to 7.30

Sourced from patent US6596687B1
